- experimentSummary: LD50 (toxicity)
- setupConditions: rat, in vivo, iv; rats, i.v.; read-out: LD50 i.v.
outcomeMeasure: LD50

1. Cc1c(C)c2c(c(C)c1OP(=O)(O)OC1=C(O)[C@@H]([C@@H](O)CO)OC1=O)CCC(C)(CCCC(C)CCCC(C)CCCC(C)C)O2 (mixture of isomers) = ≥ 100 mg/kg

----------
- experimentSummary: LD50 (toxicity)
- setupConditions: rat, in vivo, po; rats, p.o.; read-out: LD50 p.o.
outcomeMeasure: LD50

1) Cc1c(C)c2c(c(C)c1OP(=O)(O)OC1=C(O)[C@@H]([C@@H](O)CO)OC1=O)CCC(C)(CCCC(C)CCCC(C)CCCC(C)C)O2 (mixture of isomers) = ≥ 5000 mg/kg
